protocol.description: Liver microsomal metabolic stability, rat liver microsomes (RLM)
measurement.parameters: rat, liver microsomes, t1/2 (min) in RLM, 1 μM compound, 1 mg/mL microsomes, NADPH
measured.parameter: half-life at 1 μM

Reference set, count: 5
>>> val("COc1ncnc(C2CC2)c1-c1nc2n(n1)CCC(=O)N2[C@@H](C)c1ccc(-c2nc(C(F)(F)F)cn2C)c(F)c1")
"> 25 min"
>>> val("CCn1cc(C(F)(F)F)nc1-c1ccc([C@H](C)N2C(=O)CCn3nc(-c4c(OC)ncnc4C4CC4)cc32)cc1F")
"< 25 min"
>>> val("COc1ncnc(C2CC2)c1-c1nc2n(n1)CCC(=O)N2Cc1ccc(-c2nc(C(F)(F)F)cn2C(C)C)c(Cl)c1")
"> 25 min"
>>> val("CCOc1cccnc1-c1ccc(CN2C(=O)CCn3nc(-c4c(Cl)cnn4C(C)C)cc32)cc1Cl")
"< 25 min"
>>> val("Cc1cnn(C(C)C)c1-c1nn2c(c1Cl)N(Cc1ccc(-c3nc(C(F)(F)F)cn3C(C)C)c(F)c1)CCC2")
"< 25 min"

From here, focus on the item given below.
Request: Look up half-life at 1 μM for this molecule: CCn1cc(C(F)(F)F)nc1-c1ccc(NC2CCCCn3nc(-c4c(Cl)cnn4C(C)C)cc32)cc1 (stereo not drawn)
Response: < 25 min

###

assay.system: USP1/UAF1 enzyme (Homo sapiens, UniProt O94782)
Sequence (O94782 whole entry): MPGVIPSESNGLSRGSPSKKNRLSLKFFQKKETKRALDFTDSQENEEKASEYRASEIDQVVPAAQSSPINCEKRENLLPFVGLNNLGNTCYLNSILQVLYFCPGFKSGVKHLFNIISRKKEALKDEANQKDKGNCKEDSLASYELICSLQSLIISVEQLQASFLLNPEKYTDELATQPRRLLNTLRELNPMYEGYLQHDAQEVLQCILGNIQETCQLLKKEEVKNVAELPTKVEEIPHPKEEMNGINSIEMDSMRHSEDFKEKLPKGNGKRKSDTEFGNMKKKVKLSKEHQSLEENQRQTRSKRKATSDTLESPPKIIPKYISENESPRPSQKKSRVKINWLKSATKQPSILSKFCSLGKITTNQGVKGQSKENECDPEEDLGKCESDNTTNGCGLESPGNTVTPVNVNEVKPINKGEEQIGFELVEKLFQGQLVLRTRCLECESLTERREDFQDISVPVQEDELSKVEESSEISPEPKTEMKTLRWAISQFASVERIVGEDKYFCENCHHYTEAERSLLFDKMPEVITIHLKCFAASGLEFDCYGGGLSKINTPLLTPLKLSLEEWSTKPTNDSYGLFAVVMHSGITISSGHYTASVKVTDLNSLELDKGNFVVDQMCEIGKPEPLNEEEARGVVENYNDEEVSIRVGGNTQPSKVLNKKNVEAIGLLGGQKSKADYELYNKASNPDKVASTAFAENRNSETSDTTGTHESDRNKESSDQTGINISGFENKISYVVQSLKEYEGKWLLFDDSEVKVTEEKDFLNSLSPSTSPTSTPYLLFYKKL
Sequence (Q8TAF3 whole entry partner): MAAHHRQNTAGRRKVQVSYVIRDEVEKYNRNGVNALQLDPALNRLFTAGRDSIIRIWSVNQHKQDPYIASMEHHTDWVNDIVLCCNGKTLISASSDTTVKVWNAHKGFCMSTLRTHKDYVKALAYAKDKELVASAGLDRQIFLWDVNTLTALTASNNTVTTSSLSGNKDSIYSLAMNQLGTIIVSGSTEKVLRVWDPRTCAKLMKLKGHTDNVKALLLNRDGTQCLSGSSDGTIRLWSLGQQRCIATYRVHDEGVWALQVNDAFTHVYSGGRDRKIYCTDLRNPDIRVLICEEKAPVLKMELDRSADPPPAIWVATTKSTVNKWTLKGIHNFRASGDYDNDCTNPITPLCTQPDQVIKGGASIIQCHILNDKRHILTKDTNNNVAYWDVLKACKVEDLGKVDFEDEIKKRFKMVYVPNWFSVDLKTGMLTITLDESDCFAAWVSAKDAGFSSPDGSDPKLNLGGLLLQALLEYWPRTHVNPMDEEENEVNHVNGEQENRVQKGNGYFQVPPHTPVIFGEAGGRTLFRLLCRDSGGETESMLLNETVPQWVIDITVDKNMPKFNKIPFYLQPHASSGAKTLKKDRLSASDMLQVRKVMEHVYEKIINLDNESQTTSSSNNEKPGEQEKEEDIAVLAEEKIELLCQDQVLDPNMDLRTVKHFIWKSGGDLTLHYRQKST
protocol.description: USP1/UAF1 deubiquitination assay (ubiquitin-rhodamine 110 substrate)
measurement.parameters: read-out: USP1 IC50 (Ub-Rho)
pIC50: −log10 of the molar value.
measured.parameter: pIC50

Reference set, count: 3
>>> val("COc1ncnc(C2CC2)c1-c1cc2n(n1)CCC(=O)N2Cc1ccc(-n2nc(C#N)cc2OC)c(F)c1")
"6.30 to 7.00"
>>> val("CC(C)n1ncc(Cl)c1-c1cc2n(n1)CCC(=O)N2Cc1ccc(-c2nc(C(F)(F)F)ccc2F)c(Cl)c1")
"6.30 to 7.00"
>>> val("Cc1ccc(F)c(-c2ccc(CN3C(=O)CCn4nc(-c5c(Cl)cnn5C(C)C)cc43)cc2Cl)n1")
"< 6.30"

Request: Look up pIC50 for this molecule: CCn1cc(C(F)(F)F)nc1-c1ccc(N[C@H]2CCCn3nc(-c4c(Cl)cnn4C(C)C)cc32)cc1 (single isomer, unassigned)
Response: > 7.00

Request: What about this molecule? CCn1cc(C(F)(F)F)nc1-c1ccc(NC2CCCn3nc(-c4ccnn4C(C)C)c(Cl)c32)cc1F (centres unmarked)
Response: < 6.30

Request: What about this molecule? CNCc1cc(C(F)(F)F)nn1-c1ccc(CN2C(=O)CCn3nc(-c4c(Cl)cnn4C(C)C)cc32)cc1
Response: 6.30 to 7.00

###

protocol.description: Liver microsomal metabolic stability, rat liver microsomes (RLM)
measurement.parameters: rat, liver microsomes, t1/2 (min) in RLM, 1 μM compound, 1 mg/mL microsomes, NADPH
measured.parameter: half-life at 1 μM

>>> val("Cc1cnn(C(C)C)c1-c1cc2n(n1)CCC(=O)N2Cc1ccc(-c2nc(C(F)(F)F)nn2C)cc1")
"< 25 min"
>>> val("CCn1cc(C(F)(F)F)nc1-c1ccc(CN2CCCn3nc(-c4c(Cl)cnn4C(C)C)cc32)cc1F")
"< 25 min"
>>> val("CCn1cc(C(F)(F)F)nc1-c1ccc(N(C)C2CCCn3nc(-c4c(Cl)cnn4C(C)C)cc32)cc1 (stereo not shown)")
"< 25 min"

From here, focus on the item given below.
Request: Look up half-life at 1 μM for this compound: CC1CCn2nc(-c3c(Cl)cnn3C(C)C)cc2N1Cc1ccc(-c2nc(C(F)(F)F)cn2C(C)C)c(F)c1 (stereo not shown)
Response: < 25 min

###

protocol.description: Liver microsomal metabolic stability, rat liver microsomes (RLM)
measurement.parameters: rat, liver microsomes, t1/2 (min) in RLM, 1 μM compound, 1 mg/mL microsomes, NADPH
The entries below are paired with their reported half-life at 1 μM.

>>> val("CCn1cc(C(F)(F)F)nc1-c1ccc(CN2C(=O)[C@@H](C)Cn3nc(-c4c(OC)ncnc4C4CC4)nc32)cc1F (single isomer, unassigned)")
"> 25 min"
>>> val("COc1cc(CN2C(=O)CCn3nc(-c4c(OC)ncnc4C4CC4)cc32)cc(F)c1-c1nc(C(F)(F)F)cn1C(C)C")
"> 25 min"
>>> val("Cc1cnn(C(C)C)c1-c1nc2n(n1)CCCN2Cc1ccc(-c2nc(C(F)(F)F)cn2C(C)C)cc1")
"< 25 min"
>>> val("COc1cccc(C)c1-c1cc2n(n1)CCC(=O)N2Cc1ccc(-c2nc(C(F)(F)F)cn2C)cc1")
"< 25 min"
>>> val("Cc1cnn(C(C)C)c1-c1cc2n(n1)CCC(=O)N2Cc1ccc(-c2nc(C(F)(F)F)cn2C)cc1")
"< 25 min"
>>> val("CCn1cc(C(F)(F)F)nc1-c1ccc(CN2C(=O)CCn3nc(-c4c(Cl)cnn4C(C)COC)cc32)cc1 (centres unmarked)")
"< 25 min"
>>> val("CC(C)Oc1cccnc1-c1ccc(CN2C(=O)CCn3nc(-c4c(Cl)cnn4C(C)C)nc32)cc1")
"< 25 min"
>>> val("COc1ncnc(C2CC2)c1-c1nc2n(n1)CCC(=O)N2[C@@H](C)c1ccc(-c2nc(C(F)(F)F)cn2C(C)C)cc1")
"> 25 min"

Request: Look up half-life at 1 μM for this molecule: CCn1cc(C(F)(F)F)nc1-c1ccc([C@@H](C)N2C(=O)CCn3nc(-c4c(OC)ncnc4C4CC4)nc32)cc1F
Response: < 25 min

Request: What about this molecule? CCn1cc(C(F)(F)F)nc1-c1ccc(C(C)N2C(=O)CCn3nc(-c4c(OC)ncnc4C4CC4)cc32)cc1F (centres unmarked)
Response: > 25 min

Request: What about this molecule? COc1cccnc1-c1ccc(CN2C(=O)CCn3nc(-c4c(Cl)cnn4C(C)C)cc32)cc1Cl
Response: < 25 min

###

protocol.description: Liver microsomal metabolic stability, rat liver microsomes (RLM)
measurement.parameters: rat, liver microsomes, t1/2 (min) in RLM, 1 μM compound, 1 mg/mL microsomes, NADPH
The entries below are paired with their reported half-life at 1 μM.

Reference set, count: 3
>>> val("CCn1cc(C(F)(F)F)nc1-c1ccc(CC2OCCn3nc(-c4c(Cl)cnn4C(C)C)cc32)cc1 (stereo not shown)")
"< 25 min"
>>> val("COc1ncnc(C2CC2)c1-c1cc2n(n1)CCCN2Cc1ccc(-n2nc(C(F)(F)F)cc2C)cc1")
"< 25 min"
>>> val("COc1cc(C)nn1-c1ccc(CN2C(=O)CCn3nc(-c4c(Cl)cnn4C(C)C)cc32)cc1")
"< 25 min"

From here, focus on the item given below.
Request: Look up half-life at 1 μM for this compound: CCOc1cc(C(F)(F)F)nn1-c1ccc(CN2C(=O)CCn3nc(-c4c(Cl)cnn4C(C)C)cc32)cc1
Response: > 25 min

###

assay.system: USP1/UAF1 enzyme (Homo sapiens)
protocol.description: USP1/UAF1 deubiquitination assay (ubiquitin-rhodamine 110 substrate)
measurement.parameters: read-out: USP1 IC50 (Ub-Rho)
pIC50: −log10 of the molar value.
The entries below are paired with their reported pIC50.

Reference set, count: 2
>>> val("CCn1cc(C(F)(F)F)nc1-c1ccc(C(C)N2C(=O)CCn3nc(-c4c(OC)ncnc4C4CC4)cc32)cc1 (stereo not drawn)")
"> 7.00"
>>> val("Cc1cnn(C(C)C)c1-c1cc2n(n1)CCC(=O)N2Cc1ccc(-c2nc(C(F)(F)F)c[nH]2)cc1")
"6.30 to 7.00"

Request: Look up pIC50 for this molecule: CCn1cc(C(F)(F)F)nc1-c1ccc(N[C@@H]2CCCn3nc(-c4c(OC)ncnc4C4CC4)cc32)cc1 (single isomer, unassigned)
Response: > 7.00

###

Test system: Ub-PCNA levels in the nucleus of ES2 cells (USP1 activity)
protocol.description: ES2 Ub-PCNA immunofluorescence (IF) assay
Assay type: cell-based
measurement.parameters: Homo sapiens, ES-2; ES2 cells, 3 hours, Ub-PCNA immunofluorescence; read-out: USP1 IC50 (Ub-PCNA)
pIC50: −log10 of the molar value.
The entries below are paired with their reported pIC50.

Reference set, count: 4
>>> val("CC(C)n1cc(C(F)(F)F)nc1-c1ccc(CN2CCCn3nc(-c4c(Cl)cnn4C(C)C)cc32)cc1F")
"> 7.00"
>>> val("CCn1cc(C(F)(F)F)nc1-c1ccc(CN2C(=O)C(NC)Cn3nc(-c4c(Cl)cnn4C(C)C)cc32)cc1 (centres unmarked)")
"< 6.30"
>>> val("CCn1cc(C(F)(F)F)nc1-c1ccc([C@@H](C)N2C(=O)CCn3nc(-c4c(OC)ncnc4C4CC4)nc32)cc1")
"> 7.00"
>>> val("CCOc1cccnc1-c1ccc(CN2C(=O)CCn3nc(-c4c(Cl)cnn4C(C)C)cc32)cc1Cl")
"6.30 to 7.00"

From here, focus on the item given below.
Request: Look up pIC50 for this compound: CCn1cc(C(F)(F)F)nc1-c1ccc(OC2CCCn3nc(-c4c(Cl)cnn4C(C)C)cc32)cc1 (centres unmarked)
Response: > 7.00

Origin of measurements: patent US20230219965A1
